The measured values listed here are drawn from patent US20220396624A1.

Target: human PD-L1 on 293T-h-PDL1 cells (human, UniProt Q9NZQ7 19-238)
Sequence (Q9NZQ7 19-238): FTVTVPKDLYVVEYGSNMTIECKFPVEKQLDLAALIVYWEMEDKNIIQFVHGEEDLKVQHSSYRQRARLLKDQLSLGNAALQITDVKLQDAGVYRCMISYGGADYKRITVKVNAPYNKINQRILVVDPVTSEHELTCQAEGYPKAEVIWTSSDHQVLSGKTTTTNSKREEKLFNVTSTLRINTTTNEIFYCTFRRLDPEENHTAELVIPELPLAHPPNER
Experiment: FACS, hybridoma culture supernatant on 293T-h-PDL1 cells
Recorded EC50 for the following binders
Write it as a number; the unit µg/mL goes unstated.

Some binders with known EC50 results, for comparison:
## Task I have this binder here, murine antibody 14A7 (A1) (antibody, V domains shown, Mouse hybridoma antibody (subclone 14A7-4), tested as culture supernatant or purified from it; Only the variable domains are printed; also called 14A7-4) VH: QVQLKQSGAELVRPGTSVKMSCKATEYTFTNNWIAWVKQRPGHGLEWVGDIHPGGGFTNYNEKFKVKATLTADTSSSTAYMQLRSLTSEDSAIYYCAGSKTRDYDAWFAYWGQGTLVTVSA VL: DIVMTQAPSSLAVSVGEKVTLNCKSSQSLLYTGNQKNYLAWYQQKPGQSPKLLIYWASTRESGVPDRFTGSGSGTDFTLTISNVKAEDLAVYFCQQYYTYRTFGGGTKLEIK , and I need its recorded EC50.
## Result 0.538

## Task Let us now turn to murine antibody 8A2 (A8) (antibody, V domains shown, Mouse hybridoma antibody (subclone 8A2-2); Only variable domains printed; also called 8A2-2) VH: QVQLKQSGPGLVAPSQSLSITCTVSGFSLTGYGVNWVRQPPGKGLEWLGKIWGDGITDYNSALKSRLSISKDNSKSQVFLKMNSLQTDDTARYYCARDVMDYWGQGTSVTVSS VL: QIVLTQSPAIMSASPGEKVTMTCSASSSISYMHWYQQKPGTSPKRWIYDTSKLASGVPARFSGSESGTSYSLTISSMEAEDAATYYCHHRSPYPTFGAGTKLELK
## Result 0.336

## Task Consider next the binder murine antibody 22B10 (A6) (antibody, V domains shown, Mouse hybridoma antibody (subclone 22B10-1); Only variable domains printed; also called 22B10-1) VH: QVQLKQSGAELVKPGASVELSCTASGFNIEDTYLHWVNQRPEQGLEWIGRIDPANGNTYYDPKFQGKATITTDTSSNTAYLQLSRLTSEDTAVYYCARGLRLPGFPYWGQGTLVTVSA VL: DIQMTQTPSSLSASLGDRVTISCRASQDISNYLSWYQQKPDGTVKLLIYYTSILHSGVPSRFSGSGSGTDYSLAISNLDQEDIATYFCQQGNTLPWTFGGGTKLEIKR in the same way.
## Result 0.517

## Task Next: murine antibody 13C9 (A3) (antibody, V domains shown, Mouse hybridoma antibody (subclone 13C9-1), tested as culture supernatant or purified; Only variable domains printed (the VL as printed ends in RA); also called 13C9-1) VH: QVQLKQSGAGLVKPGASVKLSCKASGYIFTEYIIHWVKQRSGQGLEWIGWFYPGSDNIKYNEKFKDKATLTADKSSSTVYMELSRLTSEDSAVYFCARHETGYFFDYWGQGTTLTVSS VL: DIVITQSPAIMSASPGEKVTMTCSASSSVSKMNWYQQKSGTSPKRWIYDTSKLASGVPSRFSGSGSGTSYSLTISSMEAEDAATYYCQQWSSNPLTFGSGTKLELKR
## Result 0.44

## Task Same again, this time with murine antibody 18B4 (A4) (antibody, V domains shown, Mouse hybridoma antibody (subclone 18B4-2); Only variable domains printed; also called 18B4-2) VH: QVQLKQSGPELEKPGASVKISCKASGYSFTGYNMNWVKQSNGKSLEWIGNIDPYYGVTHYNQKFKGKATLTVDESSSTASMQLKSLTSEDSAIYYCARGIPFYGLDYWGQGTSVTVSS VL: QIVLTQSPAIMSASPGEKVTMTCGASSSVSFMHWYQQKSGTSPKRWIYDTSKLASGVPARFSGSGSGTSYSLTISSMEAEDAATYYCQQWNTNPFTFGSGTKLEIKR
## Result 0.125

Continuing:
## Task Please give the measured EC50 for this binder: murine antibody 15G10 (A2) (antibody, V domains shown, Mouse hybridoma antibody (subclone 15G10-3), tested as culture supernatant; Only variable domains printed; also called 15G10-3) VH: QVQLKQSGPELVKPGASVKTSCKASGYTFTNYVVHWVKQNPGQGLEWIGYVNPNNDGTIFNEKFKDKAILTSDKSSSTAYMELSSLTSEDSAVYYCARSPFAHWGQGTLVTVSA VL: QIVLTQSPASLTVSLGQRATISCSASESVDFYGTSLMQWFQQKPGQPPKLLVYTASNVDSEVPARFSGSGSGTDFSLNIHPVEEDDIAMYFCHQTRKVPYTFGGGTKLEIK
## Result 1.45

## Task Repeat with murine antibody 28B1 (A5), subclone 28B1-2 (antibody, V domains shown, Mouse hybridoma antibody; Only variable domains printed) VH: QVQLKQSGAELVKPGASVMLSCTASAFNIDDTYIHWVKQRPEQGLEWIGRIDPANGNTDYDPECQGKATITTDMSSNTAYLQLSSLTSEDTAVYFCARGLRLPGLVYWGRGTLVTVSA VL: DIQMTQTTSSLSASLGDRVTISCRASQDISNYLNWYQQKPDGTVKLLIYYTSILYSGVPSRFSGSGSGTDYSLTINTLEEEDIATYFCQQGNTLPWTFGGGTKLEIIR
## Result 0.39
